# TARGET_SYSTEM: human GCGR (full-length glucagon receptor of 477 amino acids) (human, UniProt P47871 26-477)
# Sequence (P47871 26-477 limits assumed): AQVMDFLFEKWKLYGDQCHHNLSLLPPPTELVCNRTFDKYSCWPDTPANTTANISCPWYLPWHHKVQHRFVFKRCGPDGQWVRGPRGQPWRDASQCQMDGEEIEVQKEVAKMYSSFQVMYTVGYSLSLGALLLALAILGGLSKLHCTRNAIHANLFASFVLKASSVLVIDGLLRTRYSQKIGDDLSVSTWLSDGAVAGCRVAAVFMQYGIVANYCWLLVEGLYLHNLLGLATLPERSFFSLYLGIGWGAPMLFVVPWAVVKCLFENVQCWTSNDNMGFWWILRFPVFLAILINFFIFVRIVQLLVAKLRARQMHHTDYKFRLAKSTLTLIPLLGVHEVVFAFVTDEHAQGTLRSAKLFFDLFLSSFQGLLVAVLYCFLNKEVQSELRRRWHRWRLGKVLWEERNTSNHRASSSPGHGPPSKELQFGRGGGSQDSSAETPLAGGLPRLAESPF
# TEST_METHOD_NOTES: cell-based or functional assay
In this section, each of the binders is paired with its reported Imax.
The figure you give is taken to be in %; do not add the unit.

Example cases with answers are listed next.
BINDER	Imax / %
hu1803-2 (antibody, human IgG4 S228P, kappa, F234A L235A, V domains shown) VH: EVQLVQSGAEVKKPGASVKVSCKASGYTFTDYWIEWVRQAPGQGLEWMGEILPGSTYTNYNEKFKGRVTFTADTSTSTAYMELSSLRSEDTAVYYCARGLSTLMAVDYFDYWGQGTTVTVSS VL: DIQMTQSPSSLSASVGDRVTITCRASQDISNYLNWYQQKPGKAPKLLIYYSSTLHSGVPSRFSGSGSGTDFTLTISSLQPEDFATYYCQQTNIFPWTFGGGTKVEIKR	98.5
hu1810-2 (antibody, human IgG4 S228P, kappa, F234A L235A, V domains shown) VH: QVQLVQSGAEVKKPGSSVKVSCKASGGTFSNYAISWVRQAPGQGLEWMGEIYPTSGNTYYNEKFKGRVTITADRSTSTMYMELSSLRSEDTAVYYCASGVITTVVSTDYFDYWGQGTLVTVSS VL: DIQMTQSPSSLSASVGDRVTITCRASLDISNYLNWYQQKPGKAPKLLIYYTSTLHSGVPSRFSGSGSGTDFTLTISSLQPEDFATYYCQQGNMVPYTFGGGTKVEIKR	100
hu1803-1 (antibody, human IgG4 S228P, kappa, F234A L235A, V domains shown) VH: EVQLVQSGAEVKKPGASVKVSCKASGYTFTDYWIEWVRQAPGQGLEWMGEILPGSTYTNYNEKFKGRVTMTRDTSTSTVYMELSSLRSEDTAVYYCARGLSTLMAVDYFDYWGQGTTVTVSS VL: DIQMTQSPSSLSASVGDRVTITCRASQDISNYLNWYQQKPGKAPKLLIYYSSTLHSGVPSRFSGSGSGTDFTLTISSLQPEDFATYYCQQTNIFPWTFGGGTKVEIKR	91.8
hu1810-8 (antibody, human IgG4 S228P, kappa, F234A L235A, V domains shown) VH: QVQLVQSGAEVKKPGSSVKVSCKASGGTFSNYAISWVKQAPGQGLEWIGEIYPTSGNTYYNEKFKGKATLTADRSTSTMYMELSSLRSEDTAVYYCASGVITTVVSTDYFDYWGQGTLVTVSS VL: DIQMTQSPSSLSASVGDRVTITCRASLDISNYLNWYQQKPGKAVKLLIYYTSTLHSGVSSRFSGSGSGTDYTLTISSLQPEDFATYYCQQGNMVPYTFGGGTKVEIKR	100

Query: Suppose we examine the binder hu1803-4 (antibody, human IgG4 S228P, kappa, F234A L235A, V domains shown) VH: EVQLVQSGAEVKKPGASVKVSCKASGYTFTDYWIEWVKQAPGQGLEWIGEILPGSTYTNYNEKFKGRATFTADPSTSTAYMELSSLRSEDTAVYYCSRGLSTLMAVDYFDYWGQGTTVTVSS VL: DIQMTQSPSSLSASVGDRVTITCRASQDISNYLNWYQQKPGKAPKLLIYYSSTLHSGVPSRFSGSGSGTDFTLTISSLQPEDFATYYCQQTNIFPWTFGGGTKVEIKR ; what Imax value has been reported?
Response: 100
